pEC50 listing for selected binders.
# TESTED TARGET: T1, Human B7-H4-Fc (Human B7H4 ECD, Fc_6His) (human)
# T1 construct: also called FcHis6 tagged human B7-H4
# T1 sequence (Q7Z7D3 whole entry, looked up): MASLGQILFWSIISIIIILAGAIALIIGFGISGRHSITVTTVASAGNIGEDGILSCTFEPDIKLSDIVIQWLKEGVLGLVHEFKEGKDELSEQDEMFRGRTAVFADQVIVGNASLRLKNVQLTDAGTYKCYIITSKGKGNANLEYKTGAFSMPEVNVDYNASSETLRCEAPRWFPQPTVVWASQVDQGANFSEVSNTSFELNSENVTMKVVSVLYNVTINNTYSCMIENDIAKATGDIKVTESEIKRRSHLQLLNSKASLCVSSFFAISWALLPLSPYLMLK
# PROCEDURE DETAILS: HTRF binding, human IgG1
Hey, just a heads up that pEC50 is the negative log base 10 of the concentration in molar.

ZY0EQD-E02 human IgG1 (antibody, V domains shown) VH: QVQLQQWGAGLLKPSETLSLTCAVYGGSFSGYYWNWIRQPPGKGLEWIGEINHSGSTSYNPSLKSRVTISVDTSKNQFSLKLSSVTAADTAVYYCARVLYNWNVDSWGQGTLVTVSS VL: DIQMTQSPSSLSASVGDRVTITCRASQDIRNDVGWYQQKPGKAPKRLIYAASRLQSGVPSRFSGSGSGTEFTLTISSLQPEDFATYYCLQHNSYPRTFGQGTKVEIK | 9.46
ZY0EPQ-E02 human IgG1 (antibody, V domains shown) VH: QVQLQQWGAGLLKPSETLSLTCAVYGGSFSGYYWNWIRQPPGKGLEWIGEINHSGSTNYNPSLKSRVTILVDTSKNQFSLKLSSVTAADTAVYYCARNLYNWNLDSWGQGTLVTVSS VL: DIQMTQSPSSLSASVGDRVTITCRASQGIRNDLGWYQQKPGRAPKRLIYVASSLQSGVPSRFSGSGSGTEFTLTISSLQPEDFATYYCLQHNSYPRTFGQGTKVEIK | 9.42
ZY0EO5-E07 human IgG1 (antibody, V domains shown, also called ZY0E05-E07; E05-E07) VH: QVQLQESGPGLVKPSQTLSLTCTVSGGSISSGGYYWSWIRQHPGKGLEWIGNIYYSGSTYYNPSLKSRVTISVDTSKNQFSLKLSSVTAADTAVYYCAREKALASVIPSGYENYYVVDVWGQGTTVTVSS VL: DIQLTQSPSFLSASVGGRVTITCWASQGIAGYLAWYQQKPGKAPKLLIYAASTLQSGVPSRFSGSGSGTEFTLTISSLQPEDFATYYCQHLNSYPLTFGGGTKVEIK | 9.72

Could you now look at the following binder, please?
Given item ZY0EP0-C07 human IgG1 (antibody, V domains shown, also called ZY0EPO-C07) VH: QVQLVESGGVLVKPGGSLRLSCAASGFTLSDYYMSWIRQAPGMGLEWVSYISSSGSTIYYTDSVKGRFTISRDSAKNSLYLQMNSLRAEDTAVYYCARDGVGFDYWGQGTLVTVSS VL: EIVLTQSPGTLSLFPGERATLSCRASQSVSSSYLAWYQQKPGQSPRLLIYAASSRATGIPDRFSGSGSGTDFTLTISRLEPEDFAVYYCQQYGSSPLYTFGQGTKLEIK , the value recorded as its pEC50 is 9.52
